- System: CT-26 LUC (mouse colon adenocarcinoma stably expressing luciferase)
- assay protocol: Cytotoxicity, fluorometric cell viability assay (resazurin), CT-26 LUC
- Format: cell-based
- particulars: CT-26 luc, 48 h incubation; read-out: IC50 (μM) CT-26 luc
reported metric: IC50 (µM)
Field: numeric (µM). Do not append units.

Lab note: measured IC50 of `[Cl-].[Cl-].[Ru+2].c1ccc(-c2ccnc3c2ccc2c(-c4ccccc4)ccnc23)cc1.c1ccc(-c2ccnc3c2ccc2c(-c4ccccc4)ccnc23)cc1` was 6.65

Lab note: measured IC50 of N.N.[Cl][Pt][Cl] [Cisplatin] was 2.42

====

- System: RPE-1 (normal retina pigmented epithelial)
- assay protocol: Cytotoxicity, fluorometric cell viability assay (resazurin), RPE-1
- Format: cell-based
- particulars: Homo sapiens; RPE-1 normal cells, 48 h incubation; read-out: IC50 (μM) RPE-1
reported metric: IC50

Lab note: measured IC50 of COc1cccc(O)c1O [3-methoxycatechol] was > 100 µM

Lab note: measured IC50 of Oc1ccccc1O [catechol] was > 100 µM

Lab note: measured IC50 of CC(C)(C)c1ccc(O)c(O)c1 [4-tertbutylcatechol] was 55.1 µM

Lab note: measured IC50 of O=[N+]([O-])c1ccc(O)c(O)c1 [4-nitrocatechol] was 45 µM

Lab note: measured IC50 of COc1cccc2c1C(=O)c1c(O)c3c(c(O)c1C2=O)C[C@@](O)(C(=O)CO)C[C@@H]3O[C@H]1C[C@H](N)[C@H](O)[C@H](C)O1 [Doxorubicin] was 0.89 µM
